- Assayed System: human CB2 receptor (Homo sapiens)
- Construct: expressed in transfected cells; host or cells: CHO cells (membrane fraction)
- Sequence (P34972 whole entry): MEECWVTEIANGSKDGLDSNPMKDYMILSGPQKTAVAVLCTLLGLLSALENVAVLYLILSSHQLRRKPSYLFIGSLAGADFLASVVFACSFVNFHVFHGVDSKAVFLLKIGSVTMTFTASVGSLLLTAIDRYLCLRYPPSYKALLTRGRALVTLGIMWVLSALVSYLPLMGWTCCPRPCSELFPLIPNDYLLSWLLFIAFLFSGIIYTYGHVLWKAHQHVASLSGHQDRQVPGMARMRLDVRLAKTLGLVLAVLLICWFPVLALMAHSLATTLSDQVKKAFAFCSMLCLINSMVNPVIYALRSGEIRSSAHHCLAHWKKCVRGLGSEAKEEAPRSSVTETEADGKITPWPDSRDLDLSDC
- Assay Procedure: [3H]-CP55,940 binding inhibition assay, CHO cell membrane fraction expressing human CB2 receptor
Readout: IC50

• CCC(=O)Nc1c(C)c(C)c2c(c1C)C(c1ccc(C(C)C)cc1)CO2 (stereo not drawn) [Example 9] = 11 nM
• Cc1c(Br)c2c(c(C)c1NC(=O)CC(C)(C)C)C(c1ccc(C(C)C)cc1)CO2 (stereo not drawn) [Example 35] = < 10 nM
• Cc1cc(C)c2c(c1)SCC2c1ccc(C(C)C)cc1 (stereo not drawn) [Reference Example 212] = < 10 nM

Please go through the list and note IC50 for each molecule.
1. Cc1c(C)c2c(c(C)c1NC(=O)CC(C)(C)C)C(c1ccc(C(C)C)cc1)CO2 (stereo not drawn) [Example 1]
2. Cc1c(NC(=O)CC(C)(C)C)c(C)c2c(c1C(C)O)OCC2c1ccc(C(C)C)cc1 (single isomer, unassigned) [Example 28]
3. Cc1ccc(C)c2c1OC(=O)C2c1ccc(C(C)C)cc1 (stereo not drawn) [Reference Example 230]
4. Cc1c(NC(=O)CC(C)(C)C)c(C)c2c(c1C(C)O)OCC2c1ccc(C(C)C)cc1 (stereo not drawn) [Example 22]
5. Cc1c(C)c2c(c(C)c1NC(=O)NC(C)(C)C)C(c1ccc(C(C)C)cc1)CO2 (stereo not drawn) [Example 14]
6. Cc1c(C)c(C(CO)c2ccc(C(C)C)cc2)c(O)c(C)c1Br (stereo not drawn) [Reference Example 234]

< 10 nM
< 10 nM
55 nM
< 10 nM
< 10 nM
31 nM

----------
- Assayed System: human CB2 receptor (Homo sapiens)
- Construct: expressed in transfected cells; host or cells: CHO cells (membrane fraction)
- Assay Procedure: [3H]-CP55,940 binding inhibition assay, CHO cell membrane fraction expressing human CB2 receptor
- Test Parameters: read-out: CB2 IC50 value; 500 pM [3H]-CP55940, CHO cell membrane fraction expressing human CB2 receptor
Readout: IC50

Consider the molecule shown here: Cc1c(NC(=O)CC(C)(C)C)c(C)c2c(c1C(C)O)OCC2c1ccc(C(C)C)cc1 (single isomer, unassigned) What is its recorded IC50? < 10 nM

----------
Provide the reported pIC50 of each item.
- Assayed System: human CB1 receptor (Homo sapiens, UniProt P21554)
- Construct: expressed in transfected cells; host or cells: CHO cells (membrane fraction)
- Sequence (P21554 whole entry): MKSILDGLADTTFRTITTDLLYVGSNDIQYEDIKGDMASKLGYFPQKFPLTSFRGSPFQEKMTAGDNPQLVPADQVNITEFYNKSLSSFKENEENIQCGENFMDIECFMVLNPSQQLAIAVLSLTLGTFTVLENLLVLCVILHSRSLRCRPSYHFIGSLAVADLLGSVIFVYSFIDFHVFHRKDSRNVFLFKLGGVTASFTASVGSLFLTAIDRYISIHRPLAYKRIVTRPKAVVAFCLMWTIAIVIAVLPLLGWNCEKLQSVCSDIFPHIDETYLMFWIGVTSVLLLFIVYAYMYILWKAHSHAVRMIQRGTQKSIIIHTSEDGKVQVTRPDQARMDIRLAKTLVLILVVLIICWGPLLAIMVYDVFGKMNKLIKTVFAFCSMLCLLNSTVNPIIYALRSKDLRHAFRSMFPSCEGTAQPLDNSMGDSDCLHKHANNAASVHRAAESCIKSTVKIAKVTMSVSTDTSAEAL
- Assay Procedure: [3H]-CP55,940 binding inhibition assay, CHO cell membrane fraction expressing human CB1 receptor
pIC50: −log10 of the molar value.

* CC(=O)c1c(C)c(NC(=O)CC(C)(C)C)c(C)c2c1OCC2c1ccc(C(C)C)cc1 (centres unmarked) | > 8.00
* Cc1c(NC(=O)CC(C)(C)C)c(C)c2c(c1C(C)O)OCC2c1ccc(C(C)C)cc1 (single isomer, unassigned) [Example 28] | > 8.00
* CCC(O)c1c(C)c(NC(=O)CC(C)(C)C)c(C)c2c1OCC2c1ccc(C(C)C)cc1 (single isomer, unassigned) | > 8.00
* CCc1c(C)c(NC(=O)CC(C)(C)C)c(C)c2c1OCC2c1ccc(C(C)C)cc1 (centres unmarked) | > 8.00
* Cc1c(Br)c2c(c(C)c1NC(=O)CC(C)(C)C)C(c1ccc(C(C)C)cc1)CO2 (centres unmarked) | > 8.00

Please go through the list and note pIC50 for each compound.
1. Cc1c(C)c2c(c(C)c1NC(=O)CC(C)(C)C)[C@@H](c1ccc(C(C)C)cc1)CO2
2. COc1c(C)c(NC(=O)CC(C)(C)C)c(C)c2c1OCC2c1ccc(C(C)C)cc1 (centres unmarked)
3. CCCc1c(C)c(NC(=O)CC(C)(C)C)c(C)c2c1OCC2c1ccc(C(C)C)cc1 (centres unmarked)

1. > 8.00
2. > 8.00
3. > 8.00
